molecular target: Receptor tyrosine-protein kinase erbB-2 (Homo sapiens) (UniProt P04626); test: Inhibition of ERBB2 (unknown origin) at 500 nM
Sequence (P04626 whole entry): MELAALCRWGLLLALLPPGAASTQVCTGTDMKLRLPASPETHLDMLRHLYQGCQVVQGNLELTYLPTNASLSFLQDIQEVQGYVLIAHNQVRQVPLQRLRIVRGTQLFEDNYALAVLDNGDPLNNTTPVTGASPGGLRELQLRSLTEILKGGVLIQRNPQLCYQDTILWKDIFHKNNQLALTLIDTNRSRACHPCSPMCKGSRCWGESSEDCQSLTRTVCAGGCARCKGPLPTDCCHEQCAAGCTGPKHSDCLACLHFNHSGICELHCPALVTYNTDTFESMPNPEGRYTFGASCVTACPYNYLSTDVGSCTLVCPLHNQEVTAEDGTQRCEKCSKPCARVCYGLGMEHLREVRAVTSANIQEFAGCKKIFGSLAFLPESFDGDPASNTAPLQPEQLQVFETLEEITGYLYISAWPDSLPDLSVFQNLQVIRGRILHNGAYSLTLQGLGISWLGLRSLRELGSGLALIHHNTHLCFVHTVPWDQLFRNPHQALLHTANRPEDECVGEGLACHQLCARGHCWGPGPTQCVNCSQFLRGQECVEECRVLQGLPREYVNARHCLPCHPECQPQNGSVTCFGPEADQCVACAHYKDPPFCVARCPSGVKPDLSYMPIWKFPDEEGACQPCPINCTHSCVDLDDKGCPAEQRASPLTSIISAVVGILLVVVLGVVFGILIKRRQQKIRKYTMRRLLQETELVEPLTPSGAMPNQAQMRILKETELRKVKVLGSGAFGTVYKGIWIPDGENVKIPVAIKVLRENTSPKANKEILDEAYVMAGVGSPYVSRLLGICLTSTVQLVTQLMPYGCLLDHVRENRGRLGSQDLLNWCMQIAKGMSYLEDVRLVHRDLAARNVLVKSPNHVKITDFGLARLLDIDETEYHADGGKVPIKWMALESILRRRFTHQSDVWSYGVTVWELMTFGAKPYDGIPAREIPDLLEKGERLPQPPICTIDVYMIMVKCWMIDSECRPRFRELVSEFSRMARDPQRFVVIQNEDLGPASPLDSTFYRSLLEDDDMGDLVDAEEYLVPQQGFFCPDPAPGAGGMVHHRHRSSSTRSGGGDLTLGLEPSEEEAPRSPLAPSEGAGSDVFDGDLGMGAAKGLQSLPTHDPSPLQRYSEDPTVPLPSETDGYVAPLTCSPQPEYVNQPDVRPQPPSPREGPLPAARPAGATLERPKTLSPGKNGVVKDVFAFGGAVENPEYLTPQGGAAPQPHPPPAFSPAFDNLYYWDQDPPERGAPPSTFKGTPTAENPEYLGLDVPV
Quantity measured: inhibition (%)
All answers are understood in %, so give the number only.

In: Given the entry C[C@@H](Nc1ncnc2sc(-c3ccccc3C(N)=O)cc12)c1ccccc1 , what inhibition was observed with Receptor tyrosine-protein kinase erbB-2 (Homo sapiens) (UniProt P04626)?
Out: -3

In: For Receptor tyrosine-protein kinase erbB-2 (Homo sapiens) (UniProt P04626), provide inhibition of COc1cc(CO)ccc1-c1cc2c(Nc3ccccc3)ncnc2s1 please.
Out: 32

In: Please state recorded inhibition (tested on Receptor tyrosine-protein kinase erbB-2 (Homo sapiens) (UniProt P04626)) of COc1cc(CO)ccc1-c1cc2c(Nc3ccc(F)c(Cl)c3)ncnc2s1
Out: 48

In: Reported inhibition for Receptor tyrosine-protein kinase erbB-2 (Homo sapiens) (UniProt P04626), given COc1cc(CO)ccc1-c1cc2c(N[C@H](CO)c3ccccc3)ncnc2s1 ?
Out: 50

In: Checklist item: inhibition tested on Receptor tyrosine-protein kinase erbB-2 (Homo sapiens) (UniProt P04626), entry C[C@@H](Nc1ncnc2sc(-c3ccc(C(=O)NCCN(C)C)cc3)cc12)c1ccccc1 , value?
Out: 40

In: Given the entry CN(C)CCNC(=O)c1ccc(-c2cc3c(N[C@H](CO)c4ccccc4)ncnc3s2)cc1 , what inhibition was observed with Receptor tyrosine-protein kinase erbB-2 (Homo sapiens) (UniProt P04626)?
Out: 54

In: GET /values?readout=inhibition&system=Receptor tyrosine-protein kinase erbB-2 (Homo sapiens) (UniProt P04626)&item= COc1cc(CO)ccc1-c1cc2c(N[C@H](C)c3ccccc3)ncnc2s1
Out: 57

In: # returns recorded inhibition (system: Receptor tyrosine-protein kinase erbB-2 (Homo sapiens) (UniProt P04626)) for C#Cc1cccc(Nc2ncnc3sc(-c4ccc(CO)cc4OC)cc23)c1
Out: 19

In: Quick check: inhibition on Receptor tyrosine-protein kinase erbB-2 (Homo sapiens) (UniProt P04626), item COc1cc(C(N)=O)ccc1-c1cc2c(N[C@H](CO)c3ccccc3)ncnc2s1 ?
Out: 37

In: // lookup inhibition | system=Receptor tyrosine-protein kinase erbB-2 (Homo sapiens) (UniProt P04626) | key= COc1ccc(C(=O)NCCN(C)C)cc1-c1cc2c(N[C@H](C)c3ccccc3)ncnc2s1
Out: 63
